SYSTEM_UNDER_TEST: GrpE (Escherichia coli, UniProt P09372)
Sequence (P09372 whole entry): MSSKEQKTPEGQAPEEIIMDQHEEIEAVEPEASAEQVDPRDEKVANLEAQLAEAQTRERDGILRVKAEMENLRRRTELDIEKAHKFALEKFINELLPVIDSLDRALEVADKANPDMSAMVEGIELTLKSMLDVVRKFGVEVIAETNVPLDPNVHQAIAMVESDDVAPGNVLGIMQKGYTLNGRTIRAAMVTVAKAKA
READOUT_TYPE: Kd

1. CCCc1nc2c(C)cc(-c3nc4ccccc4n3C)cc2n1Cc1ccc(-c2ccccc2C(=O)O)cc1    > 100 µM

###

SYSTEM_UNDER_TEST: DnaJ (Escherichia coli, UniProt P08622)
Sequence (P08622 whole entry): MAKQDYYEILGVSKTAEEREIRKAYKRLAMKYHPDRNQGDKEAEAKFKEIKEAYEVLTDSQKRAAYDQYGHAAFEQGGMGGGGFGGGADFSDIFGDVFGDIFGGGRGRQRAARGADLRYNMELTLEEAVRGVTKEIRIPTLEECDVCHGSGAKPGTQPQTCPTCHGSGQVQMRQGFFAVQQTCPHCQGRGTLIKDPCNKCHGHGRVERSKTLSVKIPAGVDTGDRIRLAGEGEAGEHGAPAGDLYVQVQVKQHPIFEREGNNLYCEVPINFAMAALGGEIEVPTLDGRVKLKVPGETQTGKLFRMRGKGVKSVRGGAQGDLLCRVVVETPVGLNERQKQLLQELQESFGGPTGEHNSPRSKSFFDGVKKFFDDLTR
pKd: −log10 of the molar value.
READOUT_TYPE: pKd

1. CCCc1nc2c(C)cc(-c3nc4ccccc4n3C)cc2n1Cc1ccc(-c2ccccc2C(=O)O)cc1    < 4.00

###

SYSTEM_UNDER_TEST: UniProt P0A6Y8
Sequence (P0A6Y8 whole entry): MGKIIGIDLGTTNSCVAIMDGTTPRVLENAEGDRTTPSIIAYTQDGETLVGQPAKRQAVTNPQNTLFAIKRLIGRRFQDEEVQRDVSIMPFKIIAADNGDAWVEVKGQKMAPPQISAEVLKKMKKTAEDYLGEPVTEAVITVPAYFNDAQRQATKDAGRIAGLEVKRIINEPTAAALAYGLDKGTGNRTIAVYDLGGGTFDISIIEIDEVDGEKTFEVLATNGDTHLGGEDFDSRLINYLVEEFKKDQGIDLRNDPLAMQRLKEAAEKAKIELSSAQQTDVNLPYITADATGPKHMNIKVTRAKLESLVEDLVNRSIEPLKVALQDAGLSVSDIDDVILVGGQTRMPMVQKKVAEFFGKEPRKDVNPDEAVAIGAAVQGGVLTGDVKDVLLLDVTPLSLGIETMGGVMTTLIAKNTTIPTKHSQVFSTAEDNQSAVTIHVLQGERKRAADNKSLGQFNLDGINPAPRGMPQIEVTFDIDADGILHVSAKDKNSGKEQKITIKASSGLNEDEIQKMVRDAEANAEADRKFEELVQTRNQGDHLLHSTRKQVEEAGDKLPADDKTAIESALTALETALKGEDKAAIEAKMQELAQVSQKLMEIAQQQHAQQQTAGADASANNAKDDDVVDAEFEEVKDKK
PROTOCOL: Intrinsic tryptophan fluorescence of DnaK
Assay type: binding
CONDITION_INFO: Apparent affinity KD for DnaK in the presence of ADP, ADP 1 mM
pKd: −log10 of the molar value.
READOUT_TYPE: pKd

1) COc1cc(C(=O)NS(=O)(=O)c2ccccc2C)ccc1Cc1cn(C)c2ccc(NC(=O)OC3CCCC3)cc12    4.28
